measured.target: CYP3A4 (Homo sapiens)
Construct: human liver microsomes (0.25 mg/mL); from tissue; host or cells: human liver microsomes
Sequence (P08684 whole entry): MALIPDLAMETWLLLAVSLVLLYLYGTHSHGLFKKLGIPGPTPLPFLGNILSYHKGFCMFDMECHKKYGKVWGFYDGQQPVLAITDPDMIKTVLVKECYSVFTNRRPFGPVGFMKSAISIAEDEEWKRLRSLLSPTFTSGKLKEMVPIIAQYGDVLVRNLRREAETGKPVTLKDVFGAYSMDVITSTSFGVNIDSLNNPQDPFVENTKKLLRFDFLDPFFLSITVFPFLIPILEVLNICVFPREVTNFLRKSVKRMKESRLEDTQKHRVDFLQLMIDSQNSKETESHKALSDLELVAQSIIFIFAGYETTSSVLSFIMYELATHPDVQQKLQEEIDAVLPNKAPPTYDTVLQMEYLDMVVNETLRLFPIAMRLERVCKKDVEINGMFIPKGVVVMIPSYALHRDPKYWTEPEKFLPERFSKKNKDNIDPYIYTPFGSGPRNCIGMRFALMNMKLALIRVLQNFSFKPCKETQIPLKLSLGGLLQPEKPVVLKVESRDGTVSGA
method.notes: Inhibitory effect on CYP coenzyme activity, human liver microsomes
Type: in vitro ADME
test.context: 10 μM compound, human liver microsomes 0.25 mg/mL, substrate midazolam, 15 minutes
parameter: CYP3A4 coenzyme activity (%) with respect to control group not treated
Answers are plain numbers, in %.

molecule | readout.units | experimental.value
N#CC(C#N)=NNc1ccc2[nH]c(=O)oc2c1 [Compound 15] | % | 98.3
CC(C)n1c(=O)n(C(C)C)c2ncc(NN=C(C#N)C#N)cc21 [Compound 34] | % | 90.2
CC(C)n1c(=O)n(C2CC2)c2ccc(NN=C(C#N)C#N)cc21 [Compound 42] | % | 93.5
CC(C)n1c(=O)n(C2CC2)c2ncc(NN=C(C#N)C#N)cc21 [Compound 53] | % | 97.8
CCn1c(=O)n(C(C)C)c2ncc(NN=C(C#N)C#N)cc21 [Compound 55] | % | 78

Dear colleague, could you send me CYP3A4 coenzyme activity (%) with respect to control group not treated for each of the items below? Thanks.
1. N#CC(C#N)=NNc1ccc2[nH]c(=O)sc2c1 [Compound 13]
2. CC(C)n1c(=O)n(C(F)F)c2cc(NN=C(C#N)C#N)ccc21 [Compound 43]
3. CC(C)n1c(=O)n(C)c2ccc(NN=C(C#N)C#N)cc21 [Compound 36]
4. Cc1cc(=O)n(C)c2ccc(NN=C(C#N)C#N)cc12 [Compound 27]
5. Cn1c(=O)[nH]c2cc(NN=C(C#N)C#N)ccc21 [Compound 17]
6. CC(C)n1ccc2c(NN=C(C#N)C#N)cccc2c1=O [Compound 6]

**Result**
1: 92.7; 2: 72.6; 3: 95.8; 4: 73.6; 5: 89; 6: 81.4

Could you tell me CYP3A4 coenzyme activity (%) with respect to control group not treated for each of these molecules? They are listed below.
1. CC(C)n1c(=O)oc2cc(NN=C(C#N)C#N)ccc21 [Compound 20]
2. CC(C)n1c(=O)n(C(C)C)c2cc(NN=C(C#N)C#N)ccc21 [Compound 23]
3. Cn1c(=O)oc2cc(NN=C(C#N)C#N)ccc21 [Compound 16]

**Result**
1: 98.8; 2: 79.6; 3: 99.8

----------
Test system: Tau-BiFC cells
method.notes: Cell viability (stained nuclei count) in Tau-BiFC cells
Format: cell-based
test.context: 10 μM compound, 48 hours; Forskolin-only group = 100% cell viability
Answer each item with its documented Cell viability (% @10 μM).
Numbers only, in %.

structure.smiles.string | readout.units | Cell viability (% @10 μM)
Cn1c(=O)n(C(F)F)c2cc(NN=C(C#N)C#N)cnc21 | % | 131
Cn1ccc2c(NN=C(C#N)C#N)cccc2c1=O | % | 41.4
Cc1cc(=O)[nH]c2ccc(NN=C(C#N)C#N)cc12 | % | 120
Cc1cc2c(cc1NN=C(C#N)C#N)n(C)c(=O)n2C | % | 119
Cn1c(=O)n(C2CC2)c2ncc(NN=C(C#N)C#N)cc21 | % | 137

List reported Cell viability (% @10 μM) for each of these molecules:
1. CC(C)n1c(=O)sc2cc(NN=C(C#N)C#N)ccc21
2. COc1cc(NN=C(C#N)C#N)cc2c1n(C)c(=O)n2C
3. Cn1c(=O)n(C)c2cc(NN=C(C#N)C#N)c(F)cc21

**Result**
110.7
114
155.3

Field: Cell viability (% @10 μM). Fill in for each record below.
1. N#CC(C#N)=NNc1ccc2[nH]c(=O)sc2c1
2. N#CC(C#N)=NNc1ccc2cc[nH]c(=O)c2c1

**Result**
[115.8, 152.9]
